Target desc: T1, AAV5 (adeno-associated virus 5)
T1 construct: also called adeno-associated virus serotype 5
Method notes: SPR, AAV amine-coupled to CM5 chip;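 further: nanobodies flowed as analyte at seven concentrations spanning 1–100 nM over immobilized AAV (500–800 RU), kinetic constants derived by fitting the binding curves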
Rule: kon of 6000 M⁻¹ s⁻¹ or more gives 1; anything lower gives 0.

• A4-098 (VHH) VHH: VQLQESGGGLVQPGGSLRLSCIASGSIFSINTMGWYRQAPGKQRELVATITRGGNTNYGDSVKGRFTISRDNAKNTVYLQMNTLRPEDTAVYYCHVDEIRESSWTTSNLWGQGTQVTVSS = 1
• A4-057 (VHH) VHH: VQLQESGGGLVQPGGSLRLSCAASGSIFSINTMGWYRQAPGKQREKVAAVTRGGSTNYADSVKGRFTISRDNAKNTVYLQMNSLRPEDTAVYYCHVDEVRQSSWTTSNLWGQGTQVTVSS = 0
• A4-078 (VHH) VHH: VQLQESGGGLVQPGGSLRLSCLASGTMFSLNTMGWYRQAPGKQRELVATVTRGGSTNYADFVKGRFTISRDNAKNTVYLQMNSLRPEDTAVYYCHVDEVRDSSWTTSNLWGQGTQVTVSS = 1
• A4-091 (VHH) VHH: VQLQESGGGLVQPGGSLRLSCAASGSRFSINTMGWYRQRAGKQRELVATVTRDGSTTYANSVKGRFTISRDNAKNTVYLQMNSLRPEDTAVYYCHVDELRQSTWTTSNLWGQGTQVTVSS = 1
• A4-060 (VHH) VHH: VQLQESGGGLVQPGGSLRLSCAASGSTFSLNTMGWYRQAPGKQREIVATVTRGGSTNYAESVKGRFTISRDNAKNTVYLQMNSLRPEDTAVYYCHVDEVRQSTWTTSNLWGQGTQVTVSS = 1
• A4-097 (VHH) VHH: VQLQESGGGLVQPGGSLRLSCIASGSIFSANTMGWYRQAPGKQRELVATITRGGNTNYGDSVKGRFTISRDNAKNTVYLQMNTLRPEDTAVYYCHVDEIRESSWTTSNLWGQGTQVTVSS = 1
• A4-082 (VHH) VHH: VQLQESGGGLVQPGGSLRLSCAASGSRFSLNTMGWYRQAPGKQRELVATVTRGGSTKYADFVKGRFTISRDNAKNTVYLQMNSLRPEDTAVYYCHVDELRESGWTTSNLWGQGTQVTVSS = 0
• A4-061 (VHH) VHH: VQLQESGGGLVQPGGSLRLSCAASGSRFSLNTMGWYRQAPGKQRELVATVTRGGSTNYANSVKGRFTISRDNAKNTVYLQMNSLRPEDTAVYYCHVDEVRQSTWTTSNLWGQGTQVTVSS = 1
• A4-088 (VHH) VHH: VQLQESGGGLVQTGGSLRLSCAASGSRFSLNTMGWYRQAPGKQRELVAAVTRGGNTNYGDFVKGRFTISRDNAKNTVYLQMNSLRPEDTAVYYCHVDELRESSWTTSNLWGQGTQVTVSS = 1
